biological target: Fms kinase (Homo sapiens (Human)); assay: Fms kinase biochemical activity assay (AlphaScreen, biotin-(E4Y)10 phosphorylation); settings: Kit IC50/Fms IC50, biochemical
Sequence (P07333 20-972): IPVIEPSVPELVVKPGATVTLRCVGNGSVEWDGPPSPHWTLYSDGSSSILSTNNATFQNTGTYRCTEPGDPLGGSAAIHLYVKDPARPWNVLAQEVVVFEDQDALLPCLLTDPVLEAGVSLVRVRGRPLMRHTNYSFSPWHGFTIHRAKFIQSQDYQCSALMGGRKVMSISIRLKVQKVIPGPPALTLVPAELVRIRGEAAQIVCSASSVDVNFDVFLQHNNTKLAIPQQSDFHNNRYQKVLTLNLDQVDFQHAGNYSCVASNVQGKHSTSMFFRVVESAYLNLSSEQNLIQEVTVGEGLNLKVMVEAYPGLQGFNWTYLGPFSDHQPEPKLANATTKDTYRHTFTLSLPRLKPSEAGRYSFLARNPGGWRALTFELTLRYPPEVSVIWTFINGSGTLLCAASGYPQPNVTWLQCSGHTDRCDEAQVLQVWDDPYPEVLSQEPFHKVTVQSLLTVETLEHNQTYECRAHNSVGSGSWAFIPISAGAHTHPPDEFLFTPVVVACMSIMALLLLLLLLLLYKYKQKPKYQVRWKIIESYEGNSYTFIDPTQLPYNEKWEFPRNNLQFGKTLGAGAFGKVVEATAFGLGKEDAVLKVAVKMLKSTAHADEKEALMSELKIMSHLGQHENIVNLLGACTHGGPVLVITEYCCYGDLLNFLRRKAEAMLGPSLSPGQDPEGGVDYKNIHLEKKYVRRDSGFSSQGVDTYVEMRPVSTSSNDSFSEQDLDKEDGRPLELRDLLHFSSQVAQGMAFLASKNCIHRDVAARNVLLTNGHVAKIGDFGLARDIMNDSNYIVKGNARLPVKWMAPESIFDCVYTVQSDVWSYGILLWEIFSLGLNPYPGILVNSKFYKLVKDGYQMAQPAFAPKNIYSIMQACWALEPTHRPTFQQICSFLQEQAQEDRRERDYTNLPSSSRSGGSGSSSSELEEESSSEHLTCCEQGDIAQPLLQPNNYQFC
Biochemical activity selectivity (Kit IC50/Fms IC50) values by entry
READOUT NAME: Biochemical activity selectivity (Kit IC50/Fms IC50)

1) Cc1cnc2[nH]cc(Cc3ccc(NCc4ccnc(C)c4)nc3F)c2c1 :: >20
2) Cc1cnc2[nH]cc(Cc3cnc(NCc4cccc(N5CCOCC5)n4)nc3)c2c1 :: <20
3) COc1ccc(CNc2ncc(Cc3c[nH]c4ncc(Cl)cc34)s2)cn1 :: <20
4) Cc1cnc2[nH]cc(Cc3ccc(NCc4ccc(C(F)(F)F)nc4)nc3)c2c1 :: <20
5) COc1ncc(F)cc1CNc1ncc(Cc2c[nH]c3ncc(C)cc23)cn1 :: >20
6) COc1ncccc1CNc1ccc(Cc2c[nH]c3ncc(C)cc23)c(F)n1 :: >20
7) COc1ncc(CNc2ccc(Cc3c[nH]c4ncc(Cl)cc34)c(F)n2)cc1F :: >20
8) COc1ccc(CNc2ccc(Cc3c[nH]c4ncc(C)cc34)c(F)n2)c(OC)n1 :: >20
9) COc1cc(CNc2ccc(Cc3c[nH]c4ncc(C)cc34)c(F)n2)c(F)cn1 :: >20
10) Fc1ccc(CNc2ncc(Cc3c[nH]c4ncc(Cl)cc34)cn2)cc1F :: <20
11) COc1ccc(CNc2ncc(Cc3c[nH]c4ncc(C)cc34)cc2F)cn1 :: <20
12) Cc1cnc2[nH]cc(Cc3ccc(NCc4ccnc(F)c4)nc3F)c2c1 :: >20
13) Cc1cnc2[nH]cc(Cc3ccc(NCc4ccc(Cl)nc4)nc3F)c2c1 :: >20
14) COc1ncc(CNc2ncc(Cc3c[nH]c4ncc(C)cc34)cn2)cc1F :: >20
15) COc1cnc2[nH]cc(Cc3ccc(NCc4cccnc4OC)nc3F)c2c1 :: >20
16) CS(=O)(=O)Nc1cnc2[nH]cc(Cc3ccc(NCc4ccc(Cl)nc4)nc3F)c2c1 :: >20
17) Cn1cc(F)cc(CNc2ncc(Cc3c[nH]c4ncc(Cl)cc34)cn2)c1=O :: <20
18) COc1cnc2[nH]cc(Cc3ccc(NCc4cncc(F)c4)nc3F)c2c1 :: >20
19) COc1ccnc2[nH]cc(Cc3ccc(NCc4ccc(Cl)cc4)nc3F)c12 :: <20
20) CCS(=O)(=O)Nc1ccccc1CNc1ccc(Cc2c[nH]c3ncc(C)cc23)c(F)n1 :: <20
21) COc1ncc(F)cc1CNc1ncc(Cc2c[nH]c3ncc(Cl)cc23)cn1 :: >20
22) COc1cnc2[nH]cc(Cc3ccc(NCc4ccc(Cl)cc4)nc3F)c2c1 :: <20
23) COc1ccc(CNc2ncc(Cc3c[nH]c4ncc(C)cc34)cc2C)cn1 :: <20
24) Cc1cnc2[nH]cc(Cc3ccc(NCc4cnccc4C(F)(F)F)nc3F)c2c1 :: >20
25) Fc1cc(Cc2c[nH]c3ncc(Cl)cc23)cnc1NCc1ccc(C(F)(F)F)nc1 :: <20
26) Cc1cnc2[nH]cc(Cc3cnc(NCc4cccnc4OC4CCCC4)nc3)c2c1 :: <20
27) COc1ccc(CNc2ccc(Cc3c[nH]c4ncc(F)cc34)c(F)n2)cn1 :: >20
28) COc1ccc(CNc2ccc(Cc3c[nH]c4ncc(C)cc34)c(F)n2)cn1 :: >20
29) Cc1cnc2[nH]cc(Cc3cnc(NCc4cccc(C)n4)nc3)c2c1 :: <20
30) Cc1cnc2[nH]cc(Cc3cnc(NCc4cccc(N5CCCC5)n4)nc3)c2c1 :: <20
31) COc1ccc(CNc2ncc(Cc3c[nH]c4ncc(Cl)cc34)cn2)cn1 :: <20
32) Cc1cnc2[nH]cc(Cc3cnc(NCc4ccc(C(F)(F)F)nc4)c(F)c3)c2c1 :: <20
33) Fc1ccc(CNc2ccc(Cc3c[nH]c4ncc(Cl)cc34)cn2)cn1 :: <20
34) Cc1ccc(CNc2ccc(Cc3c[nH]c4ncc(C)cc34)c(F)n2)nc1 :: >20
